Biological target: UniProt P10275
Sequence (P10275 whole entry): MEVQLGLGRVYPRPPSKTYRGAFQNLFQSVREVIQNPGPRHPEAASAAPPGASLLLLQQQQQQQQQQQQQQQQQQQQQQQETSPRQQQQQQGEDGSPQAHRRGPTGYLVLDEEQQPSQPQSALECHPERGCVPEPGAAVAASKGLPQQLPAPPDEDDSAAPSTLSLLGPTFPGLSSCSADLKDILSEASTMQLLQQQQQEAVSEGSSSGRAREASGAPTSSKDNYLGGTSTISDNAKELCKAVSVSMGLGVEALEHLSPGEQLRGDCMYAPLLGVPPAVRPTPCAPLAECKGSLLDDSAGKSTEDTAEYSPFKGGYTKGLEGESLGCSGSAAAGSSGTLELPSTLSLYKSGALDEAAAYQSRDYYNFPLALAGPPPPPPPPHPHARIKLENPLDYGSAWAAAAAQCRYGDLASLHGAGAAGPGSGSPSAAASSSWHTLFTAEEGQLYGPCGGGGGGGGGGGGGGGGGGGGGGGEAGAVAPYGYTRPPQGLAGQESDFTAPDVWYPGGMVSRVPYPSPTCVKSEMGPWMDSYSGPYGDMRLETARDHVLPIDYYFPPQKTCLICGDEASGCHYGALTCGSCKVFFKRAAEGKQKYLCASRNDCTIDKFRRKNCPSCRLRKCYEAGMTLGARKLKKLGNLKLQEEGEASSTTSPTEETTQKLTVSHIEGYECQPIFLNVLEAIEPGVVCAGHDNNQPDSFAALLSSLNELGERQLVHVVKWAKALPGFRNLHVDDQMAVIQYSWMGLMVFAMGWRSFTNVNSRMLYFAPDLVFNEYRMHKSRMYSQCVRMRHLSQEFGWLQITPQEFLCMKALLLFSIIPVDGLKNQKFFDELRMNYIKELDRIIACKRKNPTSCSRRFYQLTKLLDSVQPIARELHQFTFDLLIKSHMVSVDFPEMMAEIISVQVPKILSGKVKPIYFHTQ
pEC50: −log10 of the molar value.
Quick rule: pEC50 of at least 8 means fulfilled, below that means not fulfilled.

See these solved cases before continuing.
> print(dat)
                                   compound        testedon     labelclass
1    O=c1cc(C(F)(F)F)c2cc(N3CCCC3)ccc2[nH]1  UniProt P10275  not fulfilled
2  C[C@@H]1CC[C@H](C)N1c1ccc2[nH]c(=O)cc(C(F)(F)F)c2c1  UniProt P10275      fulfilled
3  C[C@@H]1CC[C@H](CO)N1c1ccc2[nH]c(=O)cc(C(F)(F)F)c2c1  UniProt P10275  not fulfilled

From here, focus on the item given below.
[Q] Hello, I need to know if C[C@@H]1CC[C@@H](C)N1c1ccc2[nH]c(=O)cc(C(F)(F)F)c2c1 (racemic) has measured pEC50 not below 8. Thanks!
[A] not fulfilled

----------
Target: Progesterone receptor (Homo sapiens, UniProt P06401)
Sequence (P06401 whole entry): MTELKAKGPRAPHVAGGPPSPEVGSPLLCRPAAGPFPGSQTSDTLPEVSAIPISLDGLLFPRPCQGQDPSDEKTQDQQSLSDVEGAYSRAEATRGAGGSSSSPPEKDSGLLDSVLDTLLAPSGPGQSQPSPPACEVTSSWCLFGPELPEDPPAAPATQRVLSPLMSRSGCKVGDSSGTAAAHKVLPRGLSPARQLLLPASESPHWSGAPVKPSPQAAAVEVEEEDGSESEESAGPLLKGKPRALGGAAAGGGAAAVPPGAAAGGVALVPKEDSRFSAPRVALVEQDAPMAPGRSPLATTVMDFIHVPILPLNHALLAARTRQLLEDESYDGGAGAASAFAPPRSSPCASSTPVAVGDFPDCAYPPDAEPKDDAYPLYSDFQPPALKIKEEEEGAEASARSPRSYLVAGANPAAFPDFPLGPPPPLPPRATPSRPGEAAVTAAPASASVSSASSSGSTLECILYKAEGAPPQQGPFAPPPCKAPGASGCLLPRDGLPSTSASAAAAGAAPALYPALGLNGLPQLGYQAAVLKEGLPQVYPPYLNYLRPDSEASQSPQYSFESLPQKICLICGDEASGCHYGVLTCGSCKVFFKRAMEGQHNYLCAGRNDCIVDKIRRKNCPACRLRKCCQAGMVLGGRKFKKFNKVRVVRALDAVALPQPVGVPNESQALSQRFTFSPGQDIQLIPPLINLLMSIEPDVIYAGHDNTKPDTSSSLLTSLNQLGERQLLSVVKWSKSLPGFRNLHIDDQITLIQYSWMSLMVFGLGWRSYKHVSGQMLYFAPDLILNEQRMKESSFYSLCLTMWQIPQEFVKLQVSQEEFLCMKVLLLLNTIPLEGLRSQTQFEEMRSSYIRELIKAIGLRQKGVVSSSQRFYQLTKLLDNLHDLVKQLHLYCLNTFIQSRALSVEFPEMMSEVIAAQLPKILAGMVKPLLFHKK
testReadout: Ki (nM)
Form entry: value (nM) — number only.

[Q] Find Ki for C[C@@H]1CC[C@H]([C@@H](O)C(F)(F)F)N1c1ccc2[nH]c(=O)cc(C(F)(F)F)c2c1 [LGD-2941] on Progesterone receptor (Homo sapiens, UniProt P06401) and write it down.
[A] 2500

----------
Assay: Half life in Sprague-Dawley rat at 2.5 mg/kg, iv
Assay type: ADME, organism-based
Design: dose 2.5 mg/kg, route intravenous
Conditions: in vivo
testReadout: half-life (h)
Form entry: value (h) — number only.

> print(dat)
                                  cpdsmiles  displayunit  observedmeasurement
1  C[C@@H]1CC[C@H]([C@@H](O)C(F)(F)F)N1c1ccc2[nH]c(=O)cc(C(F)(F)F)c2c1            h                  2.7

Here's the next entry for you.
[Q] Report half-life for `O=c1cc(C(F)(F)F)c2cc(N(CC(F)(F)F)CC(F)(F)F)ccc2[nH]1`
[A] 1.7

This collection of values is drawn from ChEMBL document CHEMBL1148826.
